- Tested on: SW 900
- experimentNotes: relative viability (nuclei count vs DMSO), 5 days (fraction); higher = more cells survive
- cond: first compound 0.1265 µM

| compound | experimentalTarget | relative viability |
| --- | --- | --- |
| COc1cc(N2CCC(C(N)=O)CC2)ccc1Nc1nc(N)c(Cl)c(Nc2ccccc2S(=O)(=O)C(C)C)n1 [HG-5-88-01] + N=C(N)NC(=N)NCCc1ccccc1 [Phenformin] (partner 250 µM) | SW 900 | 0.545 |
| COc1cc(N2CCC(C(N)=O)CC2)ccc1Nc1nc(N)c(Cl)c(Nc2ccccc2S(=O)(=O)C(C)C)n1 [HG-5-88-01] + Nc1nc2[nH]cc(CCc3ccc(C(=O)N[C@@H](CCC(=O)O)C(=O)O)cc3)c2c(=O)[nH]1 [Pemetrexed] (partner 0.2 µM) | SW 900 | 0.512 |
| C[C@@H]1CN(CC(=O)Nc2ccc3c(c2)Cc2cccc(-c4cc(=O)cc(N5CCOCC5)o4)c2S3)C[C@H](C)O1 + Cc1nc(Nc2ncc(C(=O)Nc3c(C)cccc3Cl)s2)cc(N2CCN(CCO)CC2)n1 [Dasatinib] (partner 0.075 µM) | SW 900 | 0.801 |
| C[C@@H]1CN(CC(=O)Nc2ccc3c(c2)Cc2cccc(-c4cc(=O)cc(N5CCOCC5)o4)c2S3)C[C@H](C)O1 + COc1cc2c(Oc3ccc(NC(=O)C4(C(=O)Nc5ccc(F)cc5)CC4)cc3F)ccnc2cc1OCCCN1CCOCC1 [Foretinib] (partner 0.25 µM) | SW 900 | 0.836 |

* * *

- Tested on: NCI-H2009
- experimentNotes: relative viability (nuclei count vs DMSO), 5 days (fraction); higher = more cells survive
- cond: first compound 0.04 µM
experimentalEndpoint: relative viability

| compound | measuredResult |
| --- | --- |
| Clc1ccc(Nc2nnc(Cc3ccncc3)c3ccccc23)cc1 [Vatalanib] + Cc1nc(Nc2ncc(C(=O)Nc3c(C)cccc3Cl)s2)cc(N2CCN(CCO)CC2)n1 [Dasatinib] (partner 0.075 µM) | 0.288 |
| COc1cc(N2CCC(C(N)=O)CC2)ccc1Nc1nc(N)c(Cl)c(Nc2ccccc2S(=O)(=O)C(C)C)n1 [HG-5-88-01] + COc1cc2c(Oc3ccc(NC(=O)C4(C(=O)Nc5ccc(F)cc5)CC4)cc3F)ccnc2cc1OCCCN1CCOCC1 [Foretinib] (partner 0.25 µM) | 1.18 |
| Clc1ccc(Nc2nnc(Cc3ccncc3)c3ccccc23)cc1 [Vatalanib] + COc1cccc2cc(-c3nc([C@H]4CC[C@H](C(=O)O)CC4)n4ncnc(N)c34)[nH]c12 [OSI-027] (partner 0.5 µM) | 0.73 |
| COc1cc(N2CCC(C(N)=O)CC2)ccc1Nc1nc(N)c(Cl)c(Nc2ccccc2S(=O)(=O)C(C)C)n1 [HG-5-88-01] + O=C(c1cc(Cc2n[nH]c(=O)c3ccccc23)ccc1F)N1CCN(C(=O)C2CC2)CC1 [Olaparib] (partner 8 µM) | 0.684 |
| C[C@@H]1CN(CC(=O)Nc2ccc3c(c2)Cc2cccc(-c4cc(=O)cc(N5CCOCC5)o4)c2S3)C[C@H](C)O1 + CC(C)C[C@H](NC(=O)[C@H](Cc1ccccc1)NC(=O)c1cnccn1)B(O)O [Bortezomib] (partner 0.002 µM) | 0.982 |
| Clc1ccc(Nc2nnc(Cc3ccncc3)c3ccccc23)cc1 [Vatalanib] + O=C(CCCCCCC(=O)Nc1ccccc1)NO [Vorinostat] (partner 1 µM) | 0.767 |
| Clc1ccc(Nc2nnc(Cc3ccncc3)c3ccccc23)cc1 [Vatalanib] + CC(C)C[C@H](NC(=O)[C@H](Cc1ccccc1)NC(=O)c1cnccn1)B(O)O [Bortezomib] (partner 0.002 µM) | 1.19 |
| Clc1ccc(Nc2nnc(Cc3ccncc3)c3ccccc23)cc1 [Vatalanib] + CCNC(=O)c1noc(-c2cc(C(C)C)c(O)cc2O)c1-c1ccc(CN2CCOCC2)cc1 [Luminespib] (partner 0.01 µM) | 1.11 |
| COc1cc(N2CCC(C(N)=O)CC2)ccc1Nc1nc(N)c(Cl)c(Nc2ccccc2S(=O)(=O)C(C)C)n1 [HG-5-88-01] + CC(=O)Nc1cccc(-n2c(=O)n(C3CC3)c(=O)c3c(Nc4ccc(I)cc4F)n(C)c(=O)c(C)c32)c1 [Trametinib] (partner 0.02 µM) | 0.272 |
| C[C@@H]1CN(CC(=O)Nc2ccc3c(c2)Cc2cccc(-c4cc(=O)cc(N5CCOCC5)o4)c2S3)C[C@H](C)O1 + COc1cc2c(Oc3ccc(NC(=O)C4(C(=O)Nc5ccc(F)cc5)CC4)cc3F)ccnc2cc1OCCCN1CCOCC1 [Foretinib] (partner 0.25 µM) | 1.35 |

* * *

- System: NCI-H1666
- experimentNotes: relative viability (nuclei count vs DMSO), 5 days (fraction); higher = more cells survive
- cond: first compound 0.8 µM
Define the label as met when relative viability is strictly less than 0.9 and as not met in all remaining cases.

| compound | experimentalTarget | classLabel |
| --- | --- | --- |
| CCCCCCCCCCCC1=C(O)C(=O)C=C(O)C1=O [Embelin] + N=C(N)NC(=N)NCCc1ccccc1 [Phenformin] (partner 250 µM) | NCI-H1666 | met |
| CCCCCCCCCCCC1=C(O)C(=O)C=C(O)C1=O [Embelin] + CCNC(=O)c1noc(-c2cc(C(C)C)c(O)cc2O)c1-c1ccc(CN2CCOCC2)cc1 [Luminespib] (partner 0.01 µM) | NCI-H1666 | not met |
| CCCCCCCCCCCC1=C(O)C(=O)C=C(O)C1=O [Embelin] + CC1(C)CCC(c2ccc(Cl)cc2)=C(CN2CCN(c3ccc(C(=O)NS(=O)(=O)c4ccc(N[C@H](CCN5CCOCC5)CSc5ccccc5)c(S(=O)(=O)C(F)(F)F)c4)cc3)CC2)C1 [Navitoclax] (partner 0.5 µM) | NCI-H1666 | not met |
| CCCCCCCCCCCC1=C(O)C(=O)C=C(O)C1=O [Embelin] + CC(=O)c1c(C)c2cnc(Nc3ccc(N4CCNCC4)cn3)nc2n(C2CCCC2)c1=O [Palbociclib] (partner 0.5 µM) | NCI-H1666 | met |
| CCCCCCCCCCCC1=C(O)C(=O)C=C(O)C1=O [Embelin] + O=C(c1cc(Cc2n[nH]c(=O)c3ccccc23)ccc1F)N1CCN(C(=O)C2CC2)CC1 [Olaparib] (partner 8 µM) | NCI-H1666 | met |
| CCCCCCCCCCCC1=C(O)C(=O)C=C(O)C1=O [Embelin] + Cc1cc(Nc2cc(N3CCN(C)CC3)nc(Sc3ccc(NC(=O)C4CC4)cc3)n2)n[nH]1 [Tozasertib] (partner 0.1 µM) | NCI-H1666 | met |

* * *

- Tested on: LXF-289
- experimentNotes: relative viability (nuclei count vs DMSO), 5 days (fraction); higher = more cells survive
- cond: first compound 1.265 µM

| compound | relative viability |
| --- | --- |
| COc1cc(N2CCC(C(N)=O)CC2)ccc1Nc1nc(N)c(Cl)c(Nc2ccccc2S(=O)(=O)C(C)C)n1 [HG-5-88-01] + COc1cc2c(Oc3ccc(NC(=O)C4(C(=O)Nc5ccc(F)cc5)CC4)cc3F)ccnc2cc1OCCCN1CCOCC1 [Foretinib] (partner 0.25 µM) | 0.977 |
| Clc1ccc(Nc2nnc(Cc3ccncc3)c3ccccc23)cc1 [Vatalanib] + CC1(C)CCC(c2ccc(Cl)cc2)=C(CN2CCN(c3ccc(C(=O)NS(=O)(=O)c4ccc(N[C@H](CCN5CCOCC5)CSc5ccccc5)c(S(=O)(=O)C(F)(F)F)c4)cc3)CC2)C1 [Navitoclax] (partner 0.5 µM) | 0.852 |
| Clc1ccc(Nc2nnc(Cc3ccncc3)c3ccccc23)cc1 [Vatalanib] + Cc1cc(Nc2cc(N3CCN(C)CC3)nc(Sc3ccc(NC(=O)C4CC4)cc3)n2)n[nH]1 [Tozasertib] (partner 0.1 µM) | 0.192 |
| Clc1ccc(Nc2nnc(Cc3ccncc3)c3ccccc23)cc1 [Vatalanib] + COc1cc2c(Oc3ccc(NC(=O)C4(C(=O)Nc5ccc(F)cc5)CC4)cc3F)ccnc2cc1OCCCN1CCOCC1 [Foretinib] (partner 0.25 µM) | 0.945 |

* * *

- Tested on: Calu-6
- experimentNotes: relative viability (nuclei count vs DMSO), 5 days (fraction); higher = more cells survive
- cond: first compound 1.265 µM
experimentalEndpoint: relative viability

| compound | measuredResult |
| --- | --- |
| COc1cc(N2CCC(C(N)=O)CC2)ccc1Nc1nc(N)c(Cl)c(Nc2ccccc2S(=O)(=O)C(C)C)n1 [HG-5-88-01] + CC1(C)CCC(c2ccc(Cl)cc2)=C(CN2CCN(c3ccc(C(=O)NS(=O)(=O)c4ccc(N[C@H](CCN5CCOCC5)CSc5ccccc5)c(S(=O)(=O)C(F)(F)F)c4)cc3)CC2)C1 [Navitoclax] (partner 0.5 µM) | 0.693 |
| Clc1ccc(Nc2nnc(Cc3ccncc3)c3ccccc23)cc1 [Vatalanib] + C[C@@H](Oc1cc(-c2cnn(C3CCNCC3)c2)cnc1N)c1c(Cl)ccc(F)c1Cl [Crizotinib] (partner 1 µM) | 0.779 |
| Clc1ccc(Nc2nnc(Cc3ccncc3)c3ccccc23)cc1 [Vatalanib] + C[C@]1(O)C[C@@H](c2nc(-c3ccc4ccc(-c5ccccc5)nc4c3)c3c(N)nccn32)C1 [Linsitinib] (partner 1 µM) | 0.912 |
| COc1cc(N2CCC(C(N)=O)CC2)ccc1Nc1nc(N)c(Cl)c(Nc2ccccc2S(=O)(=O)C(C)C)n1 [HG-5-88-01] + COc1cc2c(Oc3ccc(NC(=O)C4(C(=O)Nc5ccc(F)cc5)CC4)cc3F)ccnc2cc1OCCCN1CCOCC1 [Foretinib] (partner 0.25 µM) | 0.793 |

Source: the supplement of paper PMC10307832
